// provenance: patent US9944613B2

For each record, write down the corresponding IC50.
tested-target: recombinant human MetAP2 (Homo sapiens, UniProt P50579)
Construct: Flag; made in house
Sequence (P50579 whole entry): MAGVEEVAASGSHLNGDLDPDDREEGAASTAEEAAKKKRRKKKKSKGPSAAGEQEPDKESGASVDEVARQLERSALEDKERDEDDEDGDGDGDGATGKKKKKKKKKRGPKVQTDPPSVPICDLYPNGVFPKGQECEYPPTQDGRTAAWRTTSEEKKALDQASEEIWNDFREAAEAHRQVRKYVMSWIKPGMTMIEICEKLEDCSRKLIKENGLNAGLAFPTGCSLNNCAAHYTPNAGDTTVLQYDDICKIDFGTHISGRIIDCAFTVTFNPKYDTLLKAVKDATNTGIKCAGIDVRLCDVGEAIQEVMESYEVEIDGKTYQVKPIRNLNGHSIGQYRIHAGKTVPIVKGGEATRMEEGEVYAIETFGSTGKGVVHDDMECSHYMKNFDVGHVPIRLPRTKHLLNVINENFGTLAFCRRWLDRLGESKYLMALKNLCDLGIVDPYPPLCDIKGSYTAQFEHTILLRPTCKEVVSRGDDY
measurement-protocol: Inhibition of recombinant human MetAP2 activity (MAS peptide / amino acid oxidase / Amplex assay)
Type: biochemical
Counter-ions that a name gives are not always drawn.

# input Item under review: CO[C@@H]1[C@H](OC(=O)N2CC3(C2)CS(=O)(=O)C3)CC[C@]2(CO2)[C@H]1[C@@]1(C)O[C@@H]1CC=C(C)C . Reported IC50?
# output 50 to 500 nM

# input Item under review: CO[C@@H]1[C@H](OC(=O)N2CC3(CNC(=O)C3)C2)CC[C@]2(CO2)[C@H]1[C@@]1(C)O[C@@H]1CC=C(C)C . Reported IC50?
# output < 50 nM

# input Item under review: CO[C@@H]1[C@H](OC(=O)NC2CC3(CCN(C)C3)C2)CC[C@]2(CO2)[C@H]1[C@@]1(C)O[C@@H]1CC=C(C)C (stereo partly shown) [Example 11, formate] . Reported IC50?
# output < 50 nM

# input Item under review: CO[C@@H]1[C@H](OC(=O)N2CCC3(CC2)COC3)CC[C@]2(CO2)[C@H]1[C@@]1(C)O[C@@H]1CC=C(C)C . Reported IC50?
# output < 50 nM

* * *

System: pregnant Sprague Dawley rats (embryo/fetal development)
measurement-protocol: Rat embryofetal development study
Format: in vivo
experimental-conditions: 6 mpk subcutaneously once every three days, Gestation Days 6-18, pregnant rats
Where a name gives a salt, the structure may show the parent alone.
assay-endpoint: Rat Embryofetal @6 mpk

Reference set (5 entries):
| compound | Rat Embryofetal @6 mpk |
| --- | --- |
| CO[C@@H]1[C@H](OC(=O)N2CCC3(COC3)C2)CC[C@]2(CO2)[C@H]1[C@@]1(C)O[C@@H]1CC=C(C)C | Negative |
| CO[C@@H]1[C@H](OC(=O)N2CCC3(CCOCC3)C2)CC[C@]2(CO2)[C@H]1[C@@]1(C)O[C@@H]1CC=C(C)C | Positive |
| CO[C@@H]1[C@H](OC(=O)N2CC3(COC3)C2)CC[C@]2(CO2)[C@H]1[C@@]1(C)O[C@@H]1CC=C(C)C | Positive |
| CO[C@@H]1[C@H](OC(=O)N2CC3C(C2)C3(F)F)CC[C@]2(CO2)[C@H]1[C@@]1(C)O[C@@H]1CC=C(C)C (stereo partly drawn) | Negative |
| CO[C@@H]1[C@H](OC(=O)N2CC3(CCN(CC(F)F)CC3)C2)CC[C@]2(CO2)[C@H]1[C@@]1(C)O[C@@H]1CC=C(C)C [Example 9, formate] | Positive |

Pending compound:
# input API: value(readout= Rat Embryofetal @6 mpk, system= pregnant Sprague Dawley rats (embryo/fetal development), query= CO[C@@H]1[C@H](OC(=O)/C=C/c2ccc(OCCN(C)C)cc2)CC[C@]2(CO2)[C@H]1[C@@]1(C)O[C@@H]1CC=C(C)C [compound A, reference compound] )
# output Positive

* * *

tested-target: recombinant human MetAP2 (Homo sapiens, UniProt P50579)
Construct: Flag; made in house
measurement-protocol: Inhibition of recombinant human MetAP2 activity (MAS peptide / amino acid oxidase / Amplex assay)
Type: biochemical
experimental-conditions: Flag tagged human recombinant MetAP2, 25 minutes at 25° C.; read-out: MetAP2 IC50
Counter-ions that a name gives are not always drawn.
assay-endpoint: IC50

# input Item under review: CNC(=O)[C@H]1[C@@H]2CN(C(=O)O[C@@H]3CC[C@]4(CO4)[C@@H]([C@@]4(C)O[C@@H]4CC=C(C)C)[C@@H]3OC)C[C@@H]21 [Example 32] . Reported IC50?
# output 50 to 500 nM

# input Item under review: CO[C@@H]1[C@H](OC(=O)N2C[C@H]3CN(CC(F)F)C[C@H]3C2)CC[C@]2(CO2)[C@H]1[C@@]1(C)O[C@@H]1CC=C(C)C [Example 19] . Reported IC50?
# output 50 to 500 nM

# input Item under review: CO[C@@H]1[C@H](OC(=O)N2CC3(CCOCC3)C2)CC[C@]2(CO2)[C@H]1[C@@]1(C)O[C@@H]1CC=C(C)C [Example 3] . Reported IC50?
# output < 50 nM

# input Item under review: CO[C@@H]1[C@H](OC(=O)N2C[C@@H]3[C@H](C2)[C@H]3C(N)=O)CC[C@]2(CO2)[C@H]1[C@@]1(C)O[C@@H]1CC=C(C)C [Example 34] . Reported IC50?
# output < 50 nM

# input Item under review: CO[C@@H]1[C@H](OC(=O)N2C[C@H]3CN(C)C[C@H]3C2)CC[C@]2(CO2)[C@H]1[C@@]1(C)O[C@@H]1CC=C(C)C [Example 20, formate] . Reported IC50?
# output < 50 nM

# input Item under review: CO[C@@H]1[C@H](OC(=O)N2CCC3(COC3)C2)CC[C@]2(CO2)[C@H]1[C@@]1(C)O[C@@H]1CC=C(C)C [Example 4] . Reported IC50?
# output < 50 nM

# input Item under review: CO[C@@H]1[C@H](OC(=O)N2CC3(CCN(C)CC3)C2)CC[C@]2(CO2)[C@H]1[C@@]1(C)O[C@@H]1CC=C(C)C [Example 8, formate] . Reported IC50?
# output < 50 nM

# input Item under review: CO[C@@H]1[C@H](OC(=O)NC2CC3(C2)CN(C)C3)CC[C@]2(CO2)[C@H]1[C@@]1(C)O[C@@H]1CC=C(C)C [Example 10, formate] . Reported IC50?
# output < 50 nM

# input Item under review: CO[C@@H]1[C@H](OC(=O)N2CCC3(CCN(C)CC3)C2)CC[C@]2(CO2)[C@H]1[C@@]1(C)O[C@@H]1CC=C(C)C [Example 26] . Reported IC50?
# output < 50 nM

# input Item under review: CO[C@@H]1[C@H](OC(=O)N2CCC3(CCOC3)CC2)CC[C@]2(CO2)[C@H]1[C@@]1(C)O[C@@H]1CC=C(C)C [Example 24] . Reported IC50?
# output 50 to 500 nM

# input Item under review: CO[C@@H]1[C@H](OC(=O)N2CC3(CCOC3)C2)CC[C@]2(CO2)[C@H]1[C@@]1(C)O[C@@H]1CC=C(C)C [Example 6] . Reported IC50?
# output < 50 nM

# input Item under review: CO[C@@H]1[C@H](OC(=O)NC2CC3(CCN(C)CC3)C2)CC[C@]2(CO2)[C@H]1[C@@]1(C)O[C@@H]1CC=C(C)C [Example 7, formate] . Reported IC50?
# output < 50 nM
